Tested system: MDR1 (Homo sapiens, UniProt P08183)
Sequence (P08183 whole entry): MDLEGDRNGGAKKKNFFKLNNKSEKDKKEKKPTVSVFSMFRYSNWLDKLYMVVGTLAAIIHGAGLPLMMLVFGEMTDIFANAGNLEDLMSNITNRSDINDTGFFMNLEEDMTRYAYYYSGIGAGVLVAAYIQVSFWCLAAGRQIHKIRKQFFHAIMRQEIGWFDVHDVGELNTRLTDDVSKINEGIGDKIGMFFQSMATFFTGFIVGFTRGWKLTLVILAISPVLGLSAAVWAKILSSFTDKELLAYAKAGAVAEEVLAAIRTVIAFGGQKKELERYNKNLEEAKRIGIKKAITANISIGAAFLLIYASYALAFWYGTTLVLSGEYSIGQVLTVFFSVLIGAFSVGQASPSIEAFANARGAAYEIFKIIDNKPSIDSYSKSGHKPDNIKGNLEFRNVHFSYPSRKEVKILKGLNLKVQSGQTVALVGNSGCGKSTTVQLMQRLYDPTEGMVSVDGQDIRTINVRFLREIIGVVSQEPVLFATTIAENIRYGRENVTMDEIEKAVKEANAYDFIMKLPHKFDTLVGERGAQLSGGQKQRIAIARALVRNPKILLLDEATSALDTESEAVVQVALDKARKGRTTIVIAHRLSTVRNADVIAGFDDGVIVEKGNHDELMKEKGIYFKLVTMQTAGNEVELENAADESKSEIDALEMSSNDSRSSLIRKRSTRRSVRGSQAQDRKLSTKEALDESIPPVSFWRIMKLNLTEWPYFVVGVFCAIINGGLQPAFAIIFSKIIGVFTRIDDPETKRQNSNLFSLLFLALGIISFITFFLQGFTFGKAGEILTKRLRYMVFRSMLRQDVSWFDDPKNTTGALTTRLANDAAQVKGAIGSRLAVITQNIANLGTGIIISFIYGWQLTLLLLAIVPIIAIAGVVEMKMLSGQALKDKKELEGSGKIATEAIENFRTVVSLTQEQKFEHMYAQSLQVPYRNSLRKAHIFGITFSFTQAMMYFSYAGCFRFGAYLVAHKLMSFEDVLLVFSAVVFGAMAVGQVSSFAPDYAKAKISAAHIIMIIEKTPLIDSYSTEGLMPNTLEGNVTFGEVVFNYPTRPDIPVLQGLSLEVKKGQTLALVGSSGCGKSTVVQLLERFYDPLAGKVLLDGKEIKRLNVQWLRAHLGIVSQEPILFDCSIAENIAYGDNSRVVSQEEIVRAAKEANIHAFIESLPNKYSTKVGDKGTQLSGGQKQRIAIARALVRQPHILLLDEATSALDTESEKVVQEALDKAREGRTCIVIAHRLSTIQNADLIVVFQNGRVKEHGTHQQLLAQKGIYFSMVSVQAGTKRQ
Procedure text: Bi-directional transport of [14C]-erythromycin across MDCK-MDR1 cells
Assay type: in vitro ADME
Reported conditions: MDCK-MDR1, pH 7.4
Measure name: Papp B→A at 3 h, 0.5 µCi/mL (×10⁻⁶ cm/s)
State just the number; it will be interpreted in ×10⁻⁶ cm/s.

Field Papp B→A at 3 h, 0.5 µCi/mL (system: MDR1 (Homo sapiens, UniProt P08183)) for entry CC[C@H]1OC(=O)[C@H](C)[C@@H](O[C@H]2C[C@@](C)(OC)[C@@H](O)[C@H](C)O2)[C@H](C)[C@@H](O[C@@H]2O[C@H](C)C[C@H](N(C)C)[C@H]2O)[C@](C)(O)C[C@@H](C)C(=O)[C@H](C)[C@@H](O)[C@]1(C)O [[^14C]-erythromycin, Erythromycin] = 18.8
